- measurementTarget: Mitogen-activated protein kinase kinase kinase kinase 2 (Homo sapiens)
- Sequence (Q12851 whole entry, the tested form may be a part): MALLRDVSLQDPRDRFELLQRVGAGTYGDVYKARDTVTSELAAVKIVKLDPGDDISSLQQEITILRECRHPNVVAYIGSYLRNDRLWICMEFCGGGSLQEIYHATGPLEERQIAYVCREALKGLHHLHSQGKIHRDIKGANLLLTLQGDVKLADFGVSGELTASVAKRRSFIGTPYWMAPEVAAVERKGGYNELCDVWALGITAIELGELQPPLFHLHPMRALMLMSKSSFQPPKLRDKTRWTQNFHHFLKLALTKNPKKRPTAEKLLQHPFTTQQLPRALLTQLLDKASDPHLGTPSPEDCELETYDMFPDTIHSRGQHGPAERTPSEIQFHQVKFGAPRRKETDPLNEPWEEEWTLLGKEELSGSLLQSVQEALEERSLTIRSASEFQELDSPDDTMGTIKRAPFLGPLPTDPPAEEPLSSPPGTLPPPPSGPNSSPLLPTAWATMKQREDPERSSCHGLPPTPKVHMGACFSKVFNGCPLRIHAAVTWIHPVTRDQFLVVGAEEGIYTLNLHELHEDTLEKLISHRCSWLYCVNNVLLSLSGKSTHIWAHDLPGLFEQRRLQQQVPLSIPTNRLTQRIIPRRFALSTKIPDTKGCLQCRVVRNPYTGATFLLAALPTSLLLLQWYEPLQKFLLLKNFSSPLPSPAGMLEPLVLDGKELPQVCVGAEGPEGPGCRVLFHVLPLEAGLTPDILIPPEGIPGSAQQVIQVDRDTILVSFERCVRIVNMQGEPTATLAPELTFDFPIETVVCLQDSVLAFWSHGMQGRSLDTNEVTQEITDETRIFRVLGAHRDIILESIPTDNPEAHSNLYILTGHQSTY
- methodNotes: Inhibition of recombinant human GCK (1 to 473 residues) using myelin basic protein as substrate incubated for 40 mins in presence of [gamma-33ATP] by scintillation counting based radiometry assay
pIC50: −log10 of the molar value.
property: pIC50

> print(dat)
                                smilesentry  observedvalue
1  CC(C)n1cc(C(=O)Nc2ccc(Oc3ccnc(NC(=O)C4CC4)c3)c(F)c2)c(=O)n(-c2ccc(F)cc2)c1=O         < 6.00

----------
- methodNotes: AUC(0 to infinity) in ICR mouse at 3 mg/kg, po measured upto 24 hrs by LC-MS analysis
- Assay type: ADME, organism-based
- Parameters: route oral, dose 3 mg/kg, time <=24
- protocolConditions: in vivo
property: AUC(0-inf)

> print(dat)
                                smilesentry  observedvalue
1  CC(C)n1cc(C(=O)Nc2ccc(Oc3ccnc(NC(=O)C4CC4)c3)c(F)c2)c(=O)n(-c2ccc(F)cc2)c1=O   25.1 µg·h/mL

----------
- measurementTarget: Mitogen-activated protein kinase kinase kinase 20 (Homo sapiens)
- Sequence (Q9NYL2 whole entry): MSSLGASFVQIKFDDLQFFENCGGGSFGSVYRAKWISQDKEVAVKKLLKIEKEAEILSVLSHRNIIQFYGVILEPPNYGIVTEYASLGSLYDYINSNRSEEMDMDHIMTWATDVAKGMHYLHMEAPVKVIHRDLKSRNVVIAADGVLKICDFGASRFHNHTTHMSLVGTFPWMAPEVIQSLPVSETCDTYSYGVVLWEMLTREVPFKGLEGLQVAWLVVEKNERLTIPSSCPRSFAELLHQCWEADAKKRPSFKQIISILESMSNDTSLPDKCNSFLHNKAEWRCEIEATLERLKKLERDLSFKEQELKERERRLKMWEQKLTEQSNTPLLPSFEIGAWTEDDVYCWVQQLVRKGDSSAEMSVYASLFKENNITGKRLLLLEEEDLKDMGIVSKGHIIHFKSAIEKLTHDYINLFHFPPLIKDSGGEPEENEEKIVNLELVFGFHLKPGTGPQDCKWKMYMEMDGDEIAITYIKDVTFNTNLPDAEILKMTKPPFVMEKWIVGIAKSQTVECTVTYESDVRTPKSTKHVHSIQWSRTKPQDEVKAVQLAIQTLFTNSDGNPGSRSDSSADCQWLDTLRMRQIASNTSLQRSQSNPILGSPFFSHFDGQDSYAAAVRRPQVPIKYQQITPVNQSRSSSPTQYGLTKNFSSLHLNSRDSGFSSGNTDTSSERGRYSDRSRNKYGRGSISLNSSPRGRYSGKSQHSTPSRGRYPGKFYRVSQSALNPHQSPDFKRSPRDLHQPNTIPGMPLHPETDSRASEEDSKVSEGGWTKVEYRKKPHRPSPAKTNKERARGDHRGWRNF
- methodNotes: Inhibition of recombinant full-length human ZAK using MBP as substrate incubated for 40 mins in presence of [gamma33P]ATP by scintillation counting based radiometry assay
property: IC50

> print(dat)
                                smilesentry  property  observedvalue
1  CC(C)n1cc(C(=O)Nc2ccc(Oc3ccnc(NC(=O)C4CC4)c3)c(F)c2)c(=O)n(-c2ccc(F)cc2)c1=O      IC50       > 0.1 µM

----------
- measurementTarget: CDK6/cyclin D3 (Homo sapiens, UniProt Q00534)
- Sequence (P30281 whole entry, the tested form may be a part): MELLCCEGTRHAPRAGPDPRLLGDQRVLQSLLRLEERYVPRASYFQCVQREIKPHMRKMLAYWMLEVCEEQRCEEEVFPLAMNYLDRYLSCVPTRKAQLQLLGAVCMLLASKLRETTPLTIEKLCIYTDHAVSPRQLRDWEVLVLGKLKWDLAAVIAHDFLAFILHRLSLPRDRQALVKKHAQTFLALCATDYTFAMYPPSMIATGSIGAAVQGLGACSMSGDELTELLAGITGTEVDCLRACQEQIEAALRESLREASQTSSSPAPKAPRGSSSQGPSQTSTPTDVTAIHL
- Sequence (Q00534 whole entry, the tested form may be a part): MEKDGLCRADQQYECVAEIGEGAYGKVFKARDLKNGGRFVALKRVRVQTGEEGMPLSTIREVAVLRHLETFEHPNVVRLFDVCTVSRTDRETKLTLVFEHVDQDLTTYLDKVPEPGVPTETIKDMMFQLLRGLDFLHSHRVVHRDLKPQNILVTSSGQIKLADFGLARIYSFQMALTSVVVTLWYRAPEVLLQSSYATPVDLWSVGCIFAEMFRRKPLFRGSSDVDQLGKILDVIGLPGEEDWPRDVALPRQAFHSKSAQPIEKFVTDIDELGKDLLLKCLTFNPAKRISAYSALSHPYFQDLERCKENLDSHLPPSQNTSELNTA
- methodNotes: Inhibition of recombinant full length human CDK6/CyclinD3C using Rb fragment as substrate incubated for 40 mins in presence of [gamma-33ATP] by scintillation counting based radiometry assay
property: IC50

> print(dat)
                                smilesentry  property  observedvalue
1  CC(C)n1cc(C(=O)Nc2ccc(Oc3ccnc(NC(=O)C4CC4)c3)c(F)c2)c(=O)n(-c2ccc(F)cc2)c1=O      IC50      > 1000 nM

----------
- Test system: BaF3
- methodNotes: Antiproliferative activity against mouse BaF3/TEL-AXL cells incubated for 72 hrs by SRB or CCK8 assay
- protocolConditions: BaF3, 72 h
Under this convention, 1.0 denotes IC50 strictly below 20 nM and 0.0 denotes IC50 at or above 20 nM.

> print(dat)
                                 smilesentry  label
 1  CCC(=O)Nc1cc(Oc2ccc(NC(=O)c3cn(C(C)C)c(=O)n(-c4ccc(F)cc4)c3=O)cc2F)ccn1    1.0
 2  CC(C)n1cc(C(=O)Nc2ccc(Oc3ccnc(-c4cnn(C5CC5)c4)c3)c(F)c2)c(=O)n(-c2ccc(F)cc2)c1=O    1.0
 3  CC(C)n1cc(C(=O)Nc2ccc(Oc3ccnc(-c4cnn(C)c4)c3)c(F)c2)c(=O)n(-c2ccc(F)cc2)c1=O    1.0
 4  CCc1nc(C(N)=O)c(Nc2ccc(N3CCC(N4CCN(C)CC4)CC3)c(OC)c2)nc1NC1CCOCC1    1.0
 5  CC(C)n1cc(C(=O)Nc2ccc(Oc3ccnc(NC(=O)C4CC4)c3)c(F)c2)c(=O)n(-c2ccc(F)cc2)c1=O    1.0
 6  CC(C)n1cc(C(=O)Nc2ccc(Oc3ccnc(NC(=O)N4CCCC4)c3)c(F)c2)c(=O)n(-c2ccc(F)cc2)c1=O    1.0
 7  Cc1nn(C)cc1-c1cc(Oc2ccc(NC(=O)c3cn(C(C)C)c(=O)n(-c4ccc(F)cc4)c3=O)cc2F)ccn1    1.0
 8  CC(C)n1cc(C(=O)Nc2ccc(Oc3ccnc(-c4cnn(CC(C)(C)O)c4)c3)c(F)c2)c(=O)n(-c2ccc(F)cc2)c1=O    1.0
 9  Nc1nc(Nc2ccc3c(c2)CC[C@@H](N2CCCC2)CC3)nn1-c1cc2c(nn1)-c1ccccc1CCC2    0.0
10  CC(C)n1cc(C(=O)Nc2ccc(Oc3ccnc(NC(=O)C4CCC4)c3)c(F)c2)c(=O)n(-c2ccc(F)cc2)c1=O    0.0
11  CC(C)n1cc(C(=O)Nc2ccc(Oc3ccnc(NC(=O)N4CCOCC4)c3)c(F)c2)c(=O)n(-c2ccc(F)cc2)c1=O    1.0
12  CC(=O)Nc1cc(Oc2ccc(NC(=O)c3cn(C(C)C)c(=O)n(-c4ccc(F)cc4)c3=O)cc2F)ccn1    1.0
13  CC(C)n1cc(C(=O)Nc2ccc(Oc3ccnc(-c4cn[nH]c4)c3)c(F)c2)c(=O)n(-c2ccc(F)cc2)c1=O    1.0

----------
- measurementTarget: Mitogen-activated protein kinase 1 (Homo sapiens)
- Sequence (P28482 whole entry): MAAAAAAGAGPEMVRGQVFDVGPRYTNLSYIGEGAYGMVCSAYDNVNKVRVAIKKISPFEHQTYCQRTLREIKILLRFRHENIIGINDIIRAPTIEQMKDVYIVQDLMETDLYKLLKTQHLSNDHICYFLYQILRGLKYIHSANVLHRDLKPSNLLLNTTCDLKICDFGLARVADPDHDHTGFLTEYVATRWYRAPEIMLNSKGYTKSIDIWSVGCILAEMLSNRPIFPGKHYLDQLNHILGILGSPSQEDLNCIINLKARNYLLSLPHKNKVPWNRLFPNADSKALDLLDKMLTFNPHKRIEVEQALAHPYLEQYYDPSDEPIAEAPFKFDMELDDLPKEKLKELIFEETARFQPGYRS
- methodNotes: Inhibition of human full length recombinant ERK2 using myelin basic protein as substrate incubated for 40 mins in presence of [gamma33P-ATP] by radiometric scintillation counting analysis
pIC50: −log10 of the molar value.
property: pIC50

> print(dat)
                                smilesentry  observedvalue
1  CC(C)n1cc(C(=O)Nc2ccc(Oc3ccnc(NC(=O)C4CC4)c3)c(F)c2)c(=O)n(-c2ccc(F)cc2)c1=O         < 6.00

----------
- measurementTarget: Receptor-type tyrosine-protein kinase FLT3 (Homo sapiens)
- Sequence (P36888 whole entry): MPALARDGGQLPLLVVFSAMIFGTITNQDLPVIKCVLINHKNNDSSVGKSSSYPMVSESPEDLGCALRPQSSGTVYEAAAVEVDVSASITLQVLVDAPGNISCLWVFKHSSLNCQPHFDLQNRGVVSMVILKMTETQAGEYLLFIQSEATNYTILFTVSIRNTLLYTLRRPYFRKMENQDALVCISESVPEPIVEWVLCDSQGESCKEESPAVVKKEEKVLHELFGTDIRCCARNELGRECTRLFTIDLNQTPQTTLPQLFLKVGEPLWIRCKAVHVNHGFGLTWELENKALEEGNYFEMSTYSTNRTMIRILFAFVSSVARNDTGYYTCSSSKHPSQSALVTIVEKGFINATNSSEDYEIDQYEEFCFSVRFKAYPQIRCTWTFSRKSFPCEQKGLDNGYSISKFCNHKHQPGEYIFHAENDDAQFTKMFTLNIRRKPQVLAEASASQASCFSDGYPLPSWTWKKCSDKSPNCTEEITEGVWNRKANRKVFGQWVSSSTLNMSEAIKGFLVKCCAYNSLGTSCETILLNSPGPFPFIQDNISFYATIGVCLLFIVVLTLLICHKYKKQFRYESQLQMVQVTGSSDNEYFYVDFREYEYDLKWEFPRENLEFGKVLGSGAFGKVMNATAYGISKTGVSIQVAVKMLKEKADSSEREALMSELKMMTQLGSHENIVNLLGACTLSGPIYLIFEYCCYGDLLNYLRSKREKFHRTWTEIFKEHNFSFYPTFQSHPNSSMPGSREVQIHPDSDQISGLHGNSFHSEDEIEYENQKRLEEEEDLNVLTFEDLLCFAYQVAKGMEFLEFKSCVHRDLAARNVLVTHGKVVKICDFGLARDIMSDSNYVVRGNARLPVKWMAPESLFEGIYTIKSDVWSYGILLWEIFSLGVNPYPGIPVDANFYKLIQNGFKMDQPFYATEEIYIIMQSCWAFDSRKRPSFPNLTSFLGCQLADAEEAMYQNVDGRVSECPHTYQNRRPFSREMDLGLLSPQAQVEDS
- methodNotes: Inhibition of recombinant human FLT3 (564 to end residues) using EAIYAAPFAKKK as substrate incubated for 40 mins in presence of [gamma-33ATP] by scintillation counting based radiometry assay
property: IC50

> print(dat)
                                smilesentry  property  observedvalue
1  CC(C)n1cc(C(=O)Nc2ccc(Oc3ccnc(NC(=O)C4CC4)c3)c(F)c2)c(=O)n(-c2ccc(F)cc2)c1=O      IC50      > 1000 nM

----------
- measurementTarget: Mast/stem cell growth factor receptor Kit (Homo sapiens, UniProt P10721)
- Sequence (P10721 whole entry): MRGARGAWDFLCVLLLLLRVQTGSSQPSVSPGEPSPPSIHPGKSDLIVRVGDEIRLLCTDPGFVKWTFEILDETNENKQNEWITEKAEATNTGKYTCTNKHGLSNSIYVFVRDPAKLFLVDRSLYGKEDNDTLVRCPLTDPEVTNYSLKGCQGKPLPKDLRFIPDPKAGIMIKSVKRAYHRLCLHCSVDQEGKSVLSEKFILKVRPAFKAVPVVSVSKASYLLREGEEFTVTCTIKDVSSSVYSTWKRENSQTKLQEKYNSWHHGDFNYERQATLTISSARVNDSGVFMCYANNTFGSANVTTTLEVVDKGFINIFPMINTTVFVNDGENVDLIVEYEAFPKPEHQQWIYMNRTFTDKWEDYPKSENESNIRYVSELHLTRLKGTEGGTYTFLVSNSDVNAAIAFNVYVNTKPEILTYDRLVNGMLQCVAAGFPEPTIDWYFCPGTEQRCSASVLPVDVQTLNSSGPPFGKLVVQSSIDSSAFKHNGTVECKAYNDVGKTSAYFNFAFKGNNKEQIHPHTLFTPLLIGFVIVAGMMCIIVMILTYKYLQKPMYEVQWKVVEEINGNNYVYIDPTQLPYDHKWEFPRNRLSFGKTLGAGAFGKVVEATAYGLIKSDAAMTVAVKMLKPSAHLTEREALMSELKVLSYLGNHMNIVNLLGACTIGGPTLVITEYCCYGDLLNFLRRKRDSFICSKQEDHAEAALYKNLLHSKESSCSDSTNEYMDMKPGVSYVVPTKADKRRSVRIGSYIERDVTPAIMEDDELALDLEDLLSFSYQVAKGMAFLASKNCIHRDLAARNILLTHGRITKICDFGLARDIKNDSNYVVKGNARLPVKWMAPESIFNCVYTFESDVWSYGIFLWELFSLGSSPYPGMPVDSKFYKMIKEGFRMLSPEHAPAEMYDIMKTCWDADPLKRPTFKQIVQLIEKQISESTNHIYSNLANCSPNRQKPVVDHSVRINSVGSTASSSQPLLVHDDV
- methodNotes: Inhibition of recombinant human C-Kit using poly(Glu, Tyr) 4:1 as substrate incubated for 40 mins in presence of [gamma-33ATP] by scintillation counting based radiometry assay
pIC50: −log10 of the molar value.
property: pIC50

> print(dat)
                                smilesentry  observedvalue
1  CC(C)n1cc(C(=O)Nc2ccc(Oc3ccnc(NC(=O)C4CC4)c3)c(F)c2)c(=O)n(-c2ccc(F)cc2)c1=O         < 6.00

----------
- measurementTarget: Tyrosine-protein kinase SYK (Homo sapiens, UniProt P43405)
- methodNotes: Inhibition of recombinant human full length SYK using poly(Glu, Tyr) 4:1 as substrate incubated for 40 mins in presence of [gamma33P]ATP by scintillation counting based radiometry assay
property: IC50

> print(dat)
                                smilesentry  property  observedvalue
1  CC(C)n1cc(C(=O)Nc2ccc(Oc3ccnc(NC(=O)C4CC4)c3)c(F)c2)c(=O)n(-c2ccc(F)cc2)c1=O      IC50       > 100 nM

----------
- Test system: BT-474
- methodNotes: Antiproliferative activity against human BT-474 cells incubated for 72 hrs by SRB or CCK8 assay
- Type: functional, cell-based
- protocolConditions: BT-474, 72 h
pIC50: −log10 of the molar value.
property: pIC50

> print(dat)
                                smilesentry  observedvalue
1  CC(C)n1cc(C(=O)Nc2ccc(Oc3ccnc(NC(=O)C4CC4)c3)c(F)c2)c(=O)n(-c2ccc(F)cc2)c1=O         < 5.00

----------
- methodNotes: AUC(0 to t) in Sprague-Dawley rat at 3 mg/kg, po measured upto 24 hrs by LC-MS analysis
- Type: ADME, organism-based
- Design: route oral, dose 3 mg/kg, time <=24
- protocolConditions: in vivo
# AUC(0-t) at 24 h listing for each entry below
property: AUC(0-t) at 24 h

> print(dat)
                                smilesentry  observedvalue
1  CC(C)n1cc(C(=O)Nc2ccc(Oc3ccnc(NC(=O)C4CC4)c3)c(F)c2)c(=O)n(-c2ccc(F)cc2)c1=O  32600 ng·h/mL
2  CC(C)n1cc(C(=O)Nc2ccc(Oc3ccnc(-c4cn[nH]c4)c3)c(F)c2)c(=O)n(-c2ccc(F)cc2)c1=O  31600 ng·h/mL

----------
- measurementTarget: CDK12/Cyclin K (Homo sapiens, UniProt Q9NYV4)
- methodNotes: Inhibition of recombinant full length human CDK12/CyclinK using RSRSRSRSRSRSR as substrate incubated for 40 mins in presence of [gamma-33ATP] by scintillation counting based radiometry assay
property: IC50

> print(dat)
                                smilesentry  observedvalue
1  CC(C)n1cc(C(=O)Nc2ccc(Oc3ccnc(NC(=O)C4CC4)c3)c(F)c2)c(=O)n(-c2ccc(F)cc2)c1=O         > 1 µM
